Data origin, for the record: patent US20220009918A1

In this section, each of the compounds is paired with its reported IC50.
target: human H-PGDS (Homo sapiens, UniProt O60760); construct: Full length human H-PGDS cDNA (Invitrogen Ultimate ORF IOH13026) was amplified by PCR; 6-His (N); TEV protease cleavage site (N); made in house; host or cells: E. coli BL21 (DE3*) for H-PGDS; Sf9 insect cells (baculovirus) for COX-2; assay: H-PGDS RapidFire high throughput mass spectrometry assay; assay type: biochemical; conditions: inhibition of conversion of PGH2 to PGD2 by H-PGDS; mean pIC50; read-out: Potency Range (mean pIC50) (converted)
Sequence (O60760 whole entry): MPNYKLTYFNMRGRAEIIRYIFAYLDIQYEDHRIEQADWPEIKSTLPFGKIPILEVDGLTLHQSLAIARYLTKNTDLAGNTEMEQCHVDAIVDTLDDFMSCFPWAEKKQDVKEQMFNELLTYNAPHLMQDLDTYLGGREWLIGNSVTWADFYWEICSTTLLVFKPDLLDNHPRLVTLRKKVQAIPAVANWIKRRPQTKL
OBSERVATION TYPE: IC50

COMPOUND | TARGET OF ASSAY | RECORDED MEASUREMENT
O=C(N[C@H]1CC2(CC2)NC1=O)c1cnc(-c2cc(F)cc(Cl)c2)s1 [Example 21] | human H-PGDS (Homo sapiens, UniProt O60760) | 0.00102 to 0.01 µM
CC1(C)CC(NC(=O)c2cnc(-c3cc(F)cc(C(F)F)c3)s2)C(=O)N1 (racemic) [Example 18] | human H-PGDS (Homo sapiens, UniProt O60760) | 0.0102 to 0.1 µM
C[C@H]1[C@H](NC(=O)c2cnc(-c3cc(F)cc(Cl)c3)s2)C(=O)N[C@@H]1C [Example 36] | human H-PGDS (Homo sapiens, UniProt O60760) | 0.0102 to 0.1 µM
CCC1(CC)CNC(=O)[C@@H]1NC(=O)c1cnc(-c2cc(F)cc(Cl)c2)s1 [Example 24] | human H-PGDS (Homo sapiens, UniProt O60760) | 1.02 to 10 µM
O=C(N[C@H]1CCNC1=O)c1cnc(-c2cccnc2)s1 [Example 40] | human H-PGDS (Homo sapiens, UniProt O60760) | 0.102 to 1 µM
O=C(N[C@H]1C(=O)N[C@H]2CCC[C@H]21)c1cnc(-c2cc(F)cc(Cl)c2)s1 [Example 59] | human H-PGDS (Homo sapiens, UniProt O60760) | 0.102 to 1 µM
C[C@@]1(NC(=O)c2cnc(-c3cc(F)cc(Cl)c3)s2)CCNC1=O [Example 73] | human H-PGDS (Homo sapiens, UniProt O60760) | 0.102 to 1 µM
N#Cc1cccc(-c2ncc(C(=O)N[C@H]3CCNC3=O)s2)c1 [Example 43] | human H-PGDS (Homo sapiens, UniProt O60760) | 0.102 to 1 µM
O=C(NC1CC2(CC2)NC1=O)c1cnc(-c2cc(F)cc(Cl)c2)s1 (racemic) [Example 20] | human H-PGDS (Homo sapiens, UniProt O60760) | 0.0102 to 0.1 µM
C[C@@H]1CNC(=O)[C@@H]1NC(=O)c1cnc(-c2cc(F)cc(Cl)c2)s1 [Example 76] | human H-PGDS (Homo sapiens, UniProt O60760) | 1.02 to 10 µM
O=C(N[C@H]1CCNC1=S)c1cnc(-c2cc(F)cc(Cl)c2)s1 [Example 77] | human H-PGDS (Homo sapiens, UniProt O60760) | 0.00102 to 0.01 µM
CN1CC[C@H](NC(=O)c2cnc(-c3cc(F)cc(Cl)c3)s2)C1=O [Example 64] | human H-PGDS (Homo sapiens, UniProt O60760) | 0.0102 to 0.1 µM
O=C(N[C@H]1C(=O)N[C@H]2CCC[C@H]21)c1cnc(-c2cc(F)cc(Cl)c2)s1 (racemic) [Example 58] | human H-PGDS (Homo sapiens, UniProt O60760) | 0.0102 to 0.1 µM
Cc1ccnc(-c2ncc(C(=O)N[C@H]3CCNC3=O)s2)c1 [Example 47] | human H-PGDS (Homo sapiens, UniProt O60760) | 0.0102 to 0.1 µM
O=C(N[C@H]1CCNC1=O)c1cnc(-c2cccc(F)c2)s1 [Example 45] | human H-PGDS (Homo sapiens, UniProt O60760) | 0.0102 to 0.1 µM
Cc1cn(-c2ncc(C(=O)N[C@H]3CCNC3=O)s2)cn1 [Example 32] | human H-PGDS (Homo sapiens, UniProt O60760) | 1.02 to 10 µM
O=C(N[C@H]1CCNC1=O)c1cnc(-c2cccc(O)c2)s1 [Example 69] | human H-PGDS (Homo sapiens, UniProt O60760) | 0.0102 to 0.1 µM
